The entries below come with measured TGI values attached.
Tested on: HOP-92 NSCLC
Assay Name: NCI tumour cell line growth inhibition, 48 h
Answer format: numeric, µM implied, no suffix.

* COc1ccc2nc3cc(Cl)ccc3c(Nc3ccc(O)c(CN4CCCC4)c3)c2c1 | 16
* O=C(Nc1nc2ccc(F)cc2s1)c1cccnc1Nc1ccc(Cl)cc1Cl | 5.15
* C/C(=C\CO)CC[C@@H]1[C@@]2(C)CCCC(C)(C)[C@@H]2CC[C@@]1(C)O | 32.4
* Cc1cc(Nc2cc(N3CCN(C)CC3)nc(C#Cc3ccccc3)n2)n[nH]1 | 4.84

# ---- query compound ----
Value wanted: TGI (HOP-92 NSCLC) of entry Cn1c(=O)c2[nH]c(Nc3cccc(Cl)c3)nc2n(C)c1=O
6.56

###

# log10 of TGI per record follows
System: OVCAR-5 ovarian
Assay Name: NCI tumour cell line growth inhibition, 48 h
# log10 transformed; quantity=TGI; unit=µM

- COC(=O)[C@@H]1[C@H]2CC[C@]3(C)[C@@H](OC(C)=O)CC[C@H]3[C@@H]2CC[C@H]1C1(C)SCCS1: 1.71

May I ask what log10 of TGI has been recorded for COc1ccccc1-c1nccc(COc2ccccc2C[C@@H](Oc2ncnc3sc(-c4ccc(F)cc4)c(-c4ccc(OCCN5CCN(C)CC5)c(Cl)c4C)c23)C(=O)O)n1 ?
0.80

Record request: log10 of TGI value, item CC(C)c1ccc2c(c1)c(SC(C)(C)C)c(CC(C)(C)C(=O)O)n2Cc1ccc(Cl)cc1
1.47

Consider the compound shown here: COc1ccc(C2NC(=S)NC3=C2COc2ccc(F)cc23)cc1OC (centres undefined) What is its recorded log10 of TGI?
1.68

Which measured log10 of TGI value corresponds to COc1ccc(-c2nn(-c3cccc(Cl)c3)cc2-c2cc(-c3cccs3)no2)cc1 ?
1.87

May I ask what log10 of TGI has been recorded for Cc1ccc2nc(Nc3ccccc3C)c(Nc3ccccc3C)nc2c1 ?
1.68

###

System: ACHN renal
Assay Name: NCI tumour cell line growth inhibition, 48 h; in the data active = GI50 below about 0.43 µM; inactive = the rest
One label from this list, please: active, inactive

Solved entries:
* CC(C)(C)OC(=O)n1c(Cl)c(C(=O)N=C=S)c2ccccc21 | inactive
* COC12C=C/C(=C(/C(=O)OCc3csc(SC)n3)C(=O)CCCCCCCCC3(OC)C=C/C(=C(/C(=O)OCc4cnc(SC)s4)C(=O)CCCCCCCC1)O3)O2 (centres undefined) | inactive
* CC(=O)c1c(Nc2ccc(F)c(F)c2F)[nH]c2c(F)cc(F)cc2c1=O | active

Here's the next entry for you.
How was COc1ccc(-c2nn3ncccc3c2-c2ccnc(Nc3cccc(C(F)(F)F)c3)n2)cc1 classified in this test?
inactive

###

Reported TGI by item:
System: IGROV1 ovarian
Assay Name: NCI tumour cell line growth inhibition, 48 h
Provide the reading as a plain figure in µM.

• CC(Br)CN(CC(C)Br)c1ccc2c(c1)Cc1ccccc1-2 (stereo unspecified) = 20.7
• CCOC(=O)C(=Cc1c(-c2ccccc2)[nH]c2ccccc12)C(=O)OCC = 23.7
• N#Cc1c(-c2ccc(Cl)cc2)csc1NC(=O)Nc1cccc(C(F)(F)F)c1 = 14.2
• COc1cccc(C2CC(=O)Nc3cc4c(cc32)CCC4)c1OC (stereo unspecified) = 59.3

Next compound, TGI to be filled in.
Using the record for CCCCCCCCCCCCCCCCCCNC(=O)[C@H]1CSC(c2ccc(F)c(OC)c2)N1 (stereo partly specified) , report its TGI.
5.05

###

Measured GI50, listed per entry.
System: 786-0 renal
Assay Name: NCI tumour cell line growth inhibition, 48 h

A selection of reference data follows.
* Cc1nc2cc(Nc3nc(Nc4ccc(F)cc4)nc(-c4ccc(Cl)cc4)n3)ccc2n1Cc1ccccc1 | 6480 nM
* CC(=O)Nc1ccc2c(c1)CN1C(=O)c3ccccc3C1=N2 | > 100000 nM
* Cc1cc2c(-c3nc4ccccn4c3NC34CC5CC(CC(C5)C3)C4)c(O)c(O)cc2c(O)c1-c1c(C)cc2c(-c3nc4ccccn4c3NC34CC5CC(CC(C5)C3)C4)c(O)c(O)cc2c1O | 932 nM
* CCCCCCCCCCCCCCCCCCNC(=O)[C@H]1CSC(c2ccc(F)c(OC)c2)N1 (some centres undefined) | 1010 nM

Request body: readout GI50, system 786-0 renal, query Cc1ccc(-c2cc(C(Cl)Cl)on2)cc1 . Return the value.
60300 nM

Fill in the recorded GI50 for this compound, with 786-0 renal as test system: C/C(=N\O)[C@H]1CC[C@@]2(C)[C@@H]3CC[C@H]4C(C)(C)/C(=N/O)CC[C@@]45CC35CC[C@]12C (some centres undefined)
2970 nM

Form: Entry = COc1cccc(C2CC(=O)Nc3cc4c(cc32)CCC4)c1OC (centres undefined) | System = 786-0 renal | GI50 = ____
4840 nM

Recall the recorded GI50 for O=c1c2ccccc2c(=O)c2c1sc1c(=O)c3ccc(O)cc3c(=O)c12 with 786-0 renal and state it.
1800 nM

Request - read-out GI50 | tested on 786-0 renal | compound CCOc1cccc(/C=N/NC(=O)Cc2ccc(Nc3ccnc(C(F)(F)F)c3)cc2)c1O
2850 nM

###

Test system: COLO 205 colon
Assay Name: NCI tumour cell line growth inhibition, 48 h
Metric Name: TGI

See these solved cases before continuing.
* O=C(NOC(=O)c1ccc([N+](=O)[O-])cc1)c1ccc(Cl)cc1 | > 100 µM
* C=C1C[C@@H]2CC[C@@]34CC5O[C@H]6C(O[C@H]7CC[C@H](CC(=O)O[C@@H]8[C@@H](C)[C@@H]9O[C@@H]%10C[C@]%11(C[C@@H]%12O[C@]%13(C[C@H](C)[C@@H]%14O[C@@H]%15CC(C(COC(C)=O)OC(C)=O)O[C@@H]%15C[C@@H]%14O%13)C[C@H](C)[C@@H]%12O%11)O[C@@H]%10C[C@@H]9O[C@H]8CC8O[C@@H](CC[C@@H]1O2)C[C@@H](C)C8(O)CO)O[C@@H]7[C@@H]6O3)[C@H]5O4 (some centres not stated) | > 1 µM
* COC(=O)C1=C(C(=O)OC)C(C(=O)OC)C(C(=O)OC)C(C(=O)OC)(C(=O)OC)C(C(=O)OC)=C1C(=O)OC (configuration not stated) | 16.8 µM
* CC(C)NC(=O)OCc1c(COC(=O)NC(C)C)n(C)c2c1ccc1cc(Cl)c(Cl)cc12 | 22.8 µM
* C1=CC=C2NCCSCCNC3=CC=CC=CC3=NCCSCCN=C2C=C1 | > 100 µM
* C/C(N=NC(=S)N1CCCCCC1)=C1\C=CC=CN1O | 55.2 µM

Test system COLO 205 colon; read-out TGI; what value for O/N=C/[C@H]1COC2(CCCCC2)O1 ?
> 100 µM

###

Test system: XF 498 CNS
Assay Name: NCI tumour cell line growth inhibition, 48 h
Metric Name: TGI

* COC(=O)C1=C(C(=O)OC)C(C(=O)OC)C(C(=O)OC)C(C(=O)OC)(C(=O)OC)C(C(=O)OC)=C1C(=O)OC (configuration not stated) | 25.3 µM

Provide value of TGI for this record tested with XF 498 CNS: CN1C=C(C(N)=O)C2CC(O)[C@@](NC(=O)CS(N)(=O)=O)(C(=O)O)C2C1 (some centres not stated)
3.21 µM

Query for XF 498 CNS: what TGI does the record show for c1cc2ccc1C1NCCCN1CCN1CCCNC1c1ccc(cc1)C1NCCCN1CCN1CCCNC21 (configuration not stated) ?
> 100 µM

Lab note: need TGI with XF 498 CNS for entry C=C(C[N+](C)(C)C)N/N=C/c1oc(-c2ccc(OC)c(OC)c2)c(-c2ccc(OC)c(OC)c2)c1[N+](=O)[O-] , please look it up.
56.6 µM

Lookup: TGI / XF 498 CNS / CCOC(=O)c1cc(C(=O)O)c(=O)n2c1[nH]c1ccccc12
> 100 µM

Missing value: TGI, XF 498 CNS, entry CCCC/C=C1\CCC(CN2CCCC2)C1=O (configuration not stated) . Fill in?
29.6 µM

###

Test system: HL-60(TB) leukemia
Assay Name: NCI tumour cell line growth inhibition, 48 h
Recorded TGI, one value per entry.

* COc1ccc(C(=O)/C=C/c2ccc(OCCCCCCCCCCOc3ccc(/C=C/C(=O)c4ccc(OC)c(OC)c4)cc3)cc2)c(OC)c1 | > 100 µM

I have this compound here, Fc1ccc(OCc2ccc3nc(-c4ccccc4)c(Cl)nc3c2)cc1 , and I need its recorded TGI.
> 100 µM

Please give the measured TGI for this compound: c1cc2ccc1C1NCCCN1CCN1CCCNC1c1ccc(cc1)C1NCCCN1CCN1CCCNC21 (centres undefined)
67.8 µM

Entry under review: Cc1ccc(S(=O)(=O)N2CCc3cc(O)c([N+](=O)[O-])cc32)cc1 . Reported TGI?
> 100 µM

Report TGI for Fc1ccc(-c2cc(-c3cn[nH]c3-c3ccccn3)ccn2)cc1 please.
> 25 µM

Request the reported TGI associated with OCCN(CCO)c1ncnc2c1sc(=S)n2-c1ccccc1
> 100 µM

So what's the measured TGI for this one? NC(=O)c1ncn(C2OC(CO)C(O)C2O)c1NC(=S)NC(=O)c1ccccc1 (centres undefined)
> 100 µM

If you can, please state the reported TGI value of COc1ccc2[nH]c3c(C)c4cc[n+](COC(=O)c5ccccc5)cc4c(C)c3c2c1 .
4.13 µM

# lookup: TGI of COc1cc2c(c(OC)c1OC)-c1ccc(SC)c(=O)cc1[C@@H](NC(=O)c1ccc(F)cc1)CC2
12.7 µM

Data provenance is PubChem BioAssay (NCI).
